Molecular target: T1, His6-MCL1 (human MCL1 residues 163-326) (human, UniProt Q07820 163-326)
T1 construct: Named His6-MCL1 in the FPA; called rMCL1 in the pull-downs; also called His-MCL1; recombinant MCL1; source: E. coli BL21(DE3), purified (nickel column, gel filtration); not shown: His6, N-terminal, kept
T1 sequence (Q07820 163-326): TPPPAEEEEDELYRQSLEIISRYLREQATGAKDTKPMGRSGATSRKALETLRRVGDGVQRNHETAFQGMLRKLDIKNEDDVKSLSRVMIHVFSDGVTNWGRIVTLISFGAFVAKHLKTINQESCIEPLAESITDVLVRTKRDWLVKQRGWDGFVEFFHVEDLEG
Test: fluorescence polarisation; competition FPA: 100 nM His6-MCL1 with variable unlabeled P18 protein or peptides for 10 min at RT, then 10 nM FITC-AHX-BAK for 1 h; 1x PBS pH 7.4, 100 uL, 96-well plates
Settings: both partners purified
Each record here notes measured IC50.
Give a bare numeral; the unit nM is implied.

[[record]]
binder = "P18 protein (human P18INK4C residues 1-168), recombinant (natural protein, UniProt P42773 1-168, looked up, Human P18 (P18INK4C, CDKN2C), residues 1-168, called full-length P18 protein in the results; The purification of this protein is not described; only that of His6-MCL1 is; also called CDKN2C; full-length P18 protein; source: E. coli BL21(DE3), recombinant) MAEPWGNELASAAARGDLEQLTSLLQNNVNVNAQNGFGRTALQVMKLGNPEIARRLLLRGANPDLKDRTGFAVIHDAARAGFLDTLQTLLEFQADVNIEDNEGNLPLHLAAKEGHLRVVEFLVKHTASNVGHRNHKGDTACDLARLYGRNEVVSLMQANGAGGATNLQ"
test_value = 113


Now for another entry.
So for CDLARLYGRNEVVSLMQANGA (peptide, UniProt P42773 141-161, looked up, Human P18 (P18INK4C), residues 141-161, holding the rBH3 motif (150-161); Made on rink amide MBHA resin, so the C-terminus is probably an amide (surmised); also called P18x peptides; source: synthetic peptide) [P18 21-mer peptide (P18 residues 141-161)] , the logged IC50 turned out to be 778
